# target.system: Adenosine receptor A2b (Homo sapiens)
# measurement.description: Relative activation of human Adenosine A2B receptor at 10 uM treatment compared to 10 uM Cl-IB-MECA
# Assay type: functional
readout: Activation (%)
Your answer is read as %, so omit the unit and give the number.

Record `CNC(=O)[C@]12C[C@@H]1[C@@H](n1cnc3c(NCc4cccc(C#CCO)c4)nc(Cl)nc31)[C@H](O)[C@@H]2O` ; system Adenosine receptor A2b (Homo sapiens); Activation = 28

# `OC[C@H]1O[C@@H](n2cnc3c(NCC(c4ccccc4)c4ccccc4)ncnc32)[C@H](O)[C@@H]1O` with Adenosine receptor A2b (Homo sapiens): Activation is 70

The reported Adenosine receptor A2b (Homo sapiens) Activation of `CNc1nc(N)nc2c1ncn2[C@@H]1O[C@H](CO)[C@@H](O)[C@H]1O` is 11

Measured Activation (Adenosine receptor A2b (Homo sapiens)), entry `CNC(=O)[C@]12C[C@@H]1[C@@H](n1cnc3c(NCc4cc(OC)ccc4OC)nc(Cl)nc31)[C@H](O)[C@@H]2O` : 0

Item: CNC(=O)[C@]12C[C@@H]1[C@@H](n1cnc3c(NC4CC4c4ccccc4)nc(Cl)nc31)[C@H](O)[C@@H]2O (stereo partly drawn) | System: Adenosine receptor A2b (Homo sapiens) | Activation: 48

Param item: `CNC(=O)[C@]12C[C@@H]1[C@@H](n1cnc3c(NCc4ccccc4C)nc(Cl)nc31)[C@H](O)[C@@H]2O` ; param system: Adenosine receptor A2b (Homo sapiens); output Activation: 24

The measured Activation that `CNC(=O)[C@@]12C[C@@H]1[C@@H](n1cnc3c(NCc4cc(Cl)ccc4OC)nc(Cl)nc31)[C@H](O)[C@@H]2O` showed for Adenosine receptor A2b (Homo sapiens) is 37

Log: Adenosine receptor A2b (Homo sapiens), compound `CNC(=O)[C@]12C[C@@H]1[C@@H](n1cnc3c(NCc4ccc(N)cc4)nc(Cl)nc31)[C@H](O)[C@@H]2O` , Activation = 22

---

Here's what we have: Ki numbers for Adenosine receptor A3 (Homo sapiens).

Notebook: `CNC(=O)[C@]12C[C@@H]1[C@@H](n1cnc3c(NCc4cccc(Cl)c4)nc(SC)nc31)[C@H](O)[C@@H]2O` , Ki read as 1.5 nM

Entry `CNC(=O)[C@]12C[C@@H]1[C@@H](n1cnc3c(NCC(c4ccccc4)c4ccccc4)nc(Cl)nc31)[C@H](O)[C@@H]2O` , Ki reported as 0.69 nM

Consider `CNC(=O)[C@]12C[C@@H]1[C@@H](n1cnc3c(NCc4cc(OC)ccc4OC)nc(Cl)nc31)[C@H](O)[C@@H]2O` . Its measured Ki is 1.4 nM

Attribution: ChEMBL document CHEMBL1142719
